FYI, the data here is from ChEMBL document CHEMBL3227999.

The following compounds are listed with their measured inhibition values.
MEASURED_TARGET: Bacterial DNA-directed RNA polymerase (Bacteria) (UniProt P0A8V2+P0A7Z4+P0A8T7+P0A800)
Sequence (P0A7Z4 whole entry partner): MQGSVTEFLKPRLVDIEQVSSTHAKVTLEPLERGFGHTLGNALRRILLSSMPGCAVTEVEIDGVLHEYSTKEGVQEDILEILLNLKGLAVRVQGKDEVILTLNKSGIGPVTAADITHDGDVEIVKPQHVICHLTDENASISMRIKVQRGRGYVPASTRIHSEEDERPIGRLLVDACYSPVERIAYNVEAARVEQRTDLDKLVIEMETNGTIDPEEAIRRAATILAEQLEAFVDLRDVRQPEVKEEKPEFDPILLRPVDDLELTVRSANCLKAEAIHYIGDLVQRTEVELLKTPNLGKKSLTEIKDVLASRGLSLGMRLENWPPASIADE
Sequence (P0A800 2-91 partner limits assumed): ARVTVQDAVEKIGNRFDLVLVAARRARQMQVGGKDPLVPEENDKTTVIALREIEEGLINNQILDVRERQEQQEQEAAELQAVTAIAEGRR
Sequence (P0A8T7 whole entry partner): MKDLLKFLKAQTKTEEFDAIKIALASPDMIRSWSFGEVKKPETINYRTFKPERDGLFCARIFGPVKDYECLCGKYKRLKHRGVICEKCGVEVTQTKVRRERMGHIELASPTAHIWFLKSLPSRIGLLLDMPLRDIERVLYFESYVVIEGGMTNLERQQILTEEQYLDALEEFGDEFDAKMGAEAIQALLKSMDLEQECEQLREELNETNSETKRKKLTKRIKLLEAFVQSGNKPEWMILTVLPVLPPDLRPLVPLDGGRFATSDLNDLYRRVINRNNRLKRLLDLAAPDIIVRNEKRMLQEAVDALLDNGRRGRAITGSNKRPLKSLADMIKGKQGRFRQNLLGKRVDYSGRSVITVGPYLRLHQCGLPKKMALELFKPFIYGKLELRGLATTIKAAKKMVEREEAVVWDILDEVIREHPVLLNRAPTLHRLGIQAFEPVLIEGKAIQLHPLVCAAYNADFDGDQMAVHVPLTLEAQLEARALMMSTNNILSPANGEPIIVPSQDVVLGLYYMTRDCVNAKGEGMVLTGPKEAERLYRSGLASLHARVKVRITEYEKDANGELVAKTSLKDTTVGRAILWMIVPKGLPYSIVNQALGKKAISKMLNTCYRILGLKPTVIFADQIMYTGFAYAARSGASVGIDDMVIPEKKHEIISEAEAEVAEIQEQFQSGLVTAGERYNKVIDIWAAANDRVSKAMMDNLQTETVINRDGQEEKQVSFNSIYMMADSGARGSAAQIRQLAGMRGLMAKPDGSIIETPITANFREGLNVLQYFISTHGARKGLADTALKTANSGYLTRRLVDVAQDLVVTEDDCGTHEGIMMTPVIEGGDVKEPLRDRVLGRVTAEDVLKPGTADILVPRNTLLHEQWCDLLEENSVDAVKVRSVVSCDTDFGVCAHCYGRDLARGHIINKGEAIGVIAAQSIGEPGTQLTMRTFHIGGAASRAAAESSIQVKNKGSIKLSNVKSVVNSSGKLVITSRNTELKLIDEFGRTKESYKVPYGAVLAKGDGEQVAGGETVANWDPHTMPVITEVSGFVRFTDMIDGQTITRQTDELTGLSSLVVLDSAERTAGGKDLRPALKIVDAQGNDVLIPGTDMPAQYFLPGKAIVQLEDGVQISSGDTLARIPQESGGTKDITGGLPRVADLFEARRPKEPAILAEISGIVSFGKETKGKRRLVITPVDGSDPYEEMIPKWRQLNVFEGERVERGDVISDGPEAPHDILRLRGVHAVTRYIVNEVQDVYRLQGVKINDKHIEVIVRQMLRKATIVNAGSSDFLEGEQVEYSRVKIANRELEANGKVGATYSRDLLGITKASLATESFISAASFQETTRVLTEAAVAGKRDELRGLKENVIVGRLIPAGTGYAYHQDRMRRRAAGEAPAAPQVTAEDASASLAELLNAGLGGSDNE
Sequence (P0A8V2 whole entry): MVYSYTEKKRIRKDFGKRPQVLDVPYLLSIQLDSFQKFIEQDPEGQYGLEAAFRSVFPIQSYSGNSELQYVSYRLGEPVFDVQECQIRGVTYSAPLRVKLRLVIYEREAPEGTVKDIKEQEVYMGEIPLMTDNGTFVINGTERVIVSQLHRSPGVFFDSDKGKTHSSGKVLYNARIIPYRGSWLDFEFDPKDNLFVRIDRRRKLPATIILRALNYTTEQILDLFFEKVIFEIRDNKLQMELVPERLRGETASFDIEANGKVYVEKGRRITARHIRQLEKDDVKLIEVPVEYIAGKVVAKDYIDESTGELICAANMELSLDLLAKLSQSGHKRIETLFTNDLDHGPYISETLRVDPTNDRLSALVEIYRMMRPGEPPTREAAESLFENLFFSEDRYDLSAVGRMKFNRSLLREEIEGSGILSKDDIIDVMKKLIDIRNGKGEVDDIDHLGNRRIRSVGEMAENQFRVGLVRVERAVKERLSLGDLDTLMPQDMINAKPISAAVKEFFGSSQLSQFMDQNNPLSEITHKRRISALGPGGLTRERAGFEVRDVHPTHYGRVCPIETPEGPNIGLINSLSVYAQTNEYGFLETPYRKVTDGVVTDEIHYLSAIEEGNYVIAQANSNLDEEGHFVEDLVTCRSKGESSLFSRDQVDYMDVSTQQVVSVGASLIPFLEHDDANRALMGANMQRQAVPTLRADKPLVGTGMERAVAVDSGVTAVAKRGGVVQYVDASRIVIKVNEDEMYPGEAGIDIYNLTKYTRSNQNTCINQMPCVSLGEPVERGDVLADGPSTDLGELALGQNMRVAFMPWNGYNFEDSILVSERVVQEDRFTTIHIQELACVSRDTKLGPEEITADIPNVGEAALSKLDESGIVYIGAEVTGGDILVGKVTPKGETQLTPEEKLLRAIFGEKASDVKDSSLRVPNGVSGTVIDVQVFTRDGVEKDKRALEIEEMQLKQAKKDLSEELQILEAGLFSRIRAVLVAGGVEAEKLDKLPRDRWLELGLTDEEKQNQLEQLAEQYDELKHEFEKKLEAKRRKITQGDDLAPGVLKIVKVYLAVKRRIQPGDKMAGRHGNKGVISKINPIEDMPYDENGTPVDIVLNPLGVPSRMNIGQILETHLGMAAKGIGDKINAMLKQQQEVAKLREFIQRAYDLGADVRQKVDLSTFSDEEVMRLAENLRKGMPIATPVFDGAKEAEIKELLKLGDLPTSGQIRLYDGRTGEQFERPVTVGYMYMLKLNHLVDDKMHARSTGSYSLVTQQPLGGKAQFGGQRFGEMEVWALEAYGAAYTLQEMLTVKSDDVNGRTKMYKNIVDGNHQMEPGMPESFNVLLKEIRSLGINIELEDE
ASSAY_EXPLANATION: Inhibition of Escherichia coli DNA-dependent RNA polymerase at 5 ug/ml using calf thymus DNA as primer
Assay type: protein-complex assay
Numbered stars: 1 amine (or outer) side, 2 acyl side, 3 side chain; on linkers, the order of the positions; unused ones are H or OH. Bridge positions count the residues as written; N and C are the ends. Square brackets hold non-standard residues; d marks the D form. Peptide text beside a SMILES is read from it. I, II: the chains in the order shown. Actinocin(9to1) = Cc1c2oc3c(C)ccc(C(=O)[*:1])c3nc-2c(C(=O)[*:2])c(N)c1=O; NMeV = CN[C@H](C(=O)O)C(C)C; Sar = CNCC(=O)O
Give the number; % is assumed, so skip it.

Look over these answered cases.
- COMPOUND: "Cc1c2oc3c(C)ccc(C(=O)N[C@@H]4C(=O)N[C@H](C(C)C)C(=O)N5CCC[C@H]5C(=O)N(C)CC(=O)N(C)[C@@H](C(C)C)C(=O)O[C@@H]4C)c3nc-2c(C(=O)N[C@@H]2C(=O)N[C@H](C(C)C)C(=O)N3CCC[C@H]3C(=O)N(C)CC(=O)N(C)[C@@H](C(C)C)C(=O)O[C@@H]2C)c(NC2CC(C)(C)N([O])C(C)(C)C2)c1=O"
  inhibition [%]: 41
- COMPOUND: "Cc1c2oc3c(C)ccc(C(=O)N[C@@H]4C(=O)N[C@H](C(C)C)C(=O)N5CCC[C@H]5C(=O)N(C)CC(=O)N(C)[C@@H](C(C)C)C(=O)O[C@@H]4C)c3nc-2c(C(=O)N[C@@H]2C(=O)N[C@H](C(C)C)C(=O)N3CCC[C@H]3C(=O)N(C)CC(=O)N(C)[C@@H](C(C)C)C(=O)O[C@@H]2C)c(NCCNC2CC(C)(C)N([O])C(C)(C)C2)c1=O"
  inhibition [%]: 61
- COMPOUND: "Cc1c2oc3c(C)ccc(C(=O)N[C@@H]4C(=O)N[C@H](C(C)C)C(=O)N5CCC[C@H]5C(=O)N(C)CC(=O)N(C)[C@@H](C(C)C)C(=O)O[C@@H]4C)c3nc-2c(C(=O)N[C@@H]2C(=O)N[C@H](C(C)C)C(=O)N3CCC[C@H]3C(=O)N(C)CC(=O)N(C)[C@@H](C(C)C)C(=O)O[C@@H]2C)c(N)c1=O [DACTINOMYCIN] (I: T[dV]P[Sar][NMeV] / II: T[dV]P[Sar][NMeV]; ester I:1-I:C, II:1-II:C; linker I:N-II:N via Actinocin(9to1))"
  inhibition [%]: 93

Please look at the following compound next.
### Prompt Query: inhibition; subject: `Cc1c2oc3c(C)ccc(C(=O)N[C@@H]4C(=O)N[C@H](C(C)C)C(=O)N5CCC[C@H]5C(=O)N(C)CC(=O)N(C)[C@@H](C(C)C)C(=O)O[C@@H]4C)c3nc-2c(C(=O)N[C@@H]2C(=O)N[C@H](C(C)C)C(=O)N3CCC[C@H]3C(=O)N(C)CC(=O)N(C)[C@@H](C(C)C)C(=O)O[C@@H]2C)c(NCCCNC2CC(C)(C)N([O])C(C)(C)C2)c1=O`
### Response 78
